The reported measurements were obtained from PubChem BioAssay (NCATS).

# assayName: NFAT Signaling Pathway (AID 444);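 also: carbachol stimulus at about its EC50 of 1 µM final; % is scaled to controls: 0 for no effect and ±100 for the full control effect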
# conditionInfo: Jurkat NFAT-bla M1, carbachol, beta-lactamase ratio, 5 h; at 7.69 µM (top of the series) unless noted
Results filed as inconclusive are left out.
propertyName: activity change, negative = inhibition (%)
Response body: numeric value in %, unit text excluded.

# count of solved cases: 10
COC(=O)N1CCC2(CCN(C(=O)NC(C)C)CC2)CC1	-29.8
O=C(c1cc(C(F)(F)F)cc(C(F)(F)F)c1)N1CCC2(CCN(Cc3nccs3)CC2)CC1	-17.7
O=C(c1cc(C(F)(F)F)cc(C(F)(F)F)c1)N1CCC[C@@]2(CCN(Cc3ccncc3)C2)C1	-25.1
CN(C)C(=O)c1ccc(-c2cc(-n3ccnc3)ncn2)cc1	7.69
CN(C)c1ncc2ncc(=O)n(C[C@H]3CCCO3)c2n1	-6.33
COc1ccc(C(=O)N2CCC3(CC2)CN(C(=O)Nc2ccccc2)C3)cc1	22.2
CCNc1ncc2nc(CCc3ccccc3)c(=O)n(-c3ccccc3)c2n1	-2.92
Cc1nc2cnc(N3CCNCC3)nc2n(Cc2ccc(F)cc2)c1=O	-14.9
O=C(O)C1CCN(c2ncnc3ccc(-c4ccccc4C(F)(F)F)cc23)CC1	6.97
O=C(Nc1cccc(F)c1)N1CCC2(CCNCC2)CC1	-3.25

Could you please provide reported activity change, negative = inhibition for CN1CCN(c2nc(-c3cccc(C#N)c3)nc3ccccc23)CC1 ? Thanks!
-2.42

Could you please provide reported activity change, negative = inhibition for Cc1noc(C)c1-c1cc(Nc2ccc(F)cc2)ncn1 ? Thanks!
-15.1

* * *

# testTarget: Mitogen-activated protein kinase 10 (Mus musculus)
# assayName: JNK3 AlphaScreen Assay (AID 530);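 also: kinase came from lysate of stimulated human HepG2 cells; signal reports phosphorylation of biotinylated GST-cJun 1-79 at Ser73 with 10 µM ATP; % is scaled to controls: 0 for no effect and ±100 for the full control effect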
# conditionInfo: JNK3 lysate, c-Jun phosphorylation; series mostly up to 57.1 µM
Results filed as inconclusive are left out. Calls of active or inactive are those of the source. Calls follow the shape of the dose curve; as a rule, active = well fitted curve in either direction with a large enough effect (not every such curve was filed as active); inconclusive = small, poorly fitted or top-dose-only effect, or another doubt; inactive = flat fitted curve, though single readings scatter.
propertyName: activity change, negative = inhibition

CN1CCN(c2ncc3nc(-c4cc(F)cc(F)c4)c(=O)n(-c4ccccc4)c3n2)CC1	inactive
Cc1cnc(CNc2ncnc3ccc(-c4ccoc4)cc23)cn1	inactive
Cc1noc(C)c1-c1nccc(N2CCOCC2)n1	inactive
COCCNc1nc(C)nc2c1nc(-c1ccccc1)n2CCCN1CCCCC1C (stereo not given)	inactive

Could you now consider this next compound?
Could you please provide reported activity change, negative = inhibition for Cc1noc(C)c1-c1cc(NCCN2CCOCC2)ncn1 ? Thanks!
inactive

* * *

# testTarget: Calcium and integrin-binding protein 1 (Homo sapiens)
# assayName: Primary qHTS for Identification of Calcium Integrin Binding Protein 1 (CIB1) Competitor (AID 1508620);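 also: GST tagged CIB1 binding a fluorescein labelled alphaIIb integrin peptide tracer; top concentration of the series differs between compounds; % is scaled to controls: 0 for no effect and ±100 for the full control effect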
# conditionInfo: CIB1-GST / FITC-alphaIIb peptide fluorescence polarization; series mostly up to 114 µM
Results filed as inconclusive are left out. The source made the active and inactive calls. The call rests on the fitted dose curve; in most records, active means well fitted inhibition curve with a large enough effect; inconclusive means small, poorly fitted or top-dose-only effect; inactive means flat fitted curve, though single readings scatter.
propertyName: outcome

# count of solved cases: 5
c1cc2c(cc1CNc1ccc(N3CCCCC3)cc1)OCO2	inactive
Cc1cc2c(s1)c1cnn(Cc3c(F)c(F)c(C)c(F)c3F)c(=O)c1n2C	inactive
C[C@H](NC(c1ccc(F)cc1)c1ccc2cccnc2c1O)c1ccccc1 (stereo partly specified)	inactive
Cc1ccc(NS(=O)(=O)c2cc3c(cc2NC(C)C)NC(=O)CC3)cc1C	inactive
CC(C)(C)OC(=O)Nc1ncnc2c1C(c1ccccc1)c1c(ccc3ccccc13)O2 (stereo unspecified)	inactive

Could you please provide reported outcome for O=c1c2ccccc2nc2sc(Nc3ccc4c(c3)CNC4)nn12 ? Thanks!
inactive

Could you please provide reported outcome for O=C(NCc1ccc(F)cc1)n1cc(P(=S)(c2ccccc2)c2ccccc2)c2ccccc21 ? Thanks!
inactive
